Source: patent US8722729B2

target: hyaluronidase of bovine origin (BTH, Bovine Testis hyaluronidase) (Bos taurus); assay: Assay of hyaluronidase activity (residual HA, HA-ELISA); assay type: biochemical; details: 10 μM; 0.5 U BTH; read-out: Enzymatic inhibition (mean as a percentage)
Sequence (Q2YDK3 1-553): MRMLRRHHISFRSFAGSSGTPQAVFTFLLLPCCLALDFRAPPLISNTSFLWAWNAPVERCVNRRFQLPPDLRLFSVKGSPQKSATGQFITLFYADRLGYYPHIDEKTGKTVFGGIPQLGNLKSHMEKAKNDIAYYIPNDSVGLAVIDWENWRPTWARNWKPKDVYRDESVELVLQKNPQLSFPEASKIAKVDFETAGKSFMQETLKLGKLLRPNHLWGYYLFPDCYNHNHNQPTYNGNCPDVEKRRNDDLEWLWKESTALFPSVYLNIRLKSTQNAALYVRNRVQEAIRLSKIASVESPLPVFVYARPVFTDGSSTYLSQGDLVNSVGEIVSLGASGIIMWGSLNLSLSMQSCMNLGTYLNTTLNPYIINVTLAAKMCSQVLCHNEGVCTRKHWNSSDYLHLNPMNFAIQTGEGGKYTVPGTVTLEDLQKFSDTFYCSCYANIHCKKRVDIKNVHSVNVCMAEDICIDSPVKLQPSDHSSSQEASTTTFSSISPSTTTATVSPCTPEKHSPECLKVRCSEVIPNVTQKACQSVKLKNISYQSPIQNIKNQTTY
METRIC_NAME: inhibition at 10 µM (%)

Example compounds with recorded inhibition at 10 µM:
COMPOUND: CCCCC/C=C\C/C=C\CCCCCCCC(=O)OC1=C(O)C(C2COC(C)(C)O2)OC1=O (centres unmarked)
UNIT_ANNOTATION: %
inhibition at 10 µM: 31
//
COMPOUND: CCCCCCCCCCCCCCCC(=O)OC[C@H](O)[C@H]1OC(=O)C(O)=C1O [6-ascorbyl palmitate, reference compound]
UNIT_ANNOTATION: %
inhibition at 10 µM: 31
//
COMPOUND: CCCCCCCC/C=C\CCCCCCCC(=O)OC1=C(OC(=O)CCCCCCC/C=C\CCCCCCCC)C(C2COC(C)(C)O2)OC1=O (centres unmarked)
UNIT_ANNOTATION: %
inhibition at 10 µM: 72

1: CCCCC/C=C\C/C=C\CCCCCCCC(=O)OC1=C(OC(=O)CCCCCCC/C=C\C/C=C\CCCCC)C(C2COC(C)(C)O2)OC1=O (centres unmarked)
2: CCCCCCCC/C=C\CCCCCCCC(=O)OC1=C(O)C(C2COC(C)(C)O2)OC1=O (centres unmarked)
In: // task: argmin of inhibition at 10 µM over [ 1 , 2 ] Give the label under which the chosen entry appears.
Out: 1

====

tested on: B16-F10 cells; experiment: Assay of melanin in B16-F10 cells (colorimetric, α-MSH stimulated); assay type: cell-based, murine; conditions: Mus musculus, B16-F10; 50 μM; 72 hours; read-out: Percentage inhibition of intracellular melanin
Reported inhibition at 50 µM values are given for each entry in this list.
The reply should contain only the number, in %.

Example compounds with recorded inhibition at 50 µM:
COMPOUND: CCCCCCCC/C=C\CCCCCCCC(=O)OC1=C(OC(=O)CCCCCCC/C=C\CCCCCCCC)C(C2COC(C)(C)O2)OC1=O (centres unmarked)
inhibition at 50 µM / %: 44
--
COMPOUND: CCCCC/C=C\C/C=C\CCCCCCCC(=O)OC1=C(O)C(C2COC(C)(C)O2)OC1=O (centres unmarked)
inhibition at 50 µM / %: 35
--
COMPOUND: CCCCCCCC/C=C\CCCCCCCC(=O)OC1=C(O)C(C2COC(C)(C)O2)OC1=O (centres unmarked)
inhibition at 50 µM / %: 7
--
COMPOUND: O=C1O[C@H]([C@@H](O)CO)C(O)=C1O
inhibition at 50 µM / %: 5

In: Report inhibition at 50 µM for CCCCC/C=C\C/C=C\CCCCCCCC(=O)OC1=C(OC(=O)CCCCCCC/C=C\C/C=C\CCCCC)C(C2COC(C)(C)O2)OC1=O (centres unmarked) please.
Out: 41

====

test system: B16-F10 cells; test: Assay of melanin in B16-F10 cells (colorimetric, α-MSH stimulated); type: cell-based, murine; conditions: Mus musculus, B16-F10; 20 μM; 72 hours; read-out: Percentage inhibition of intracellular melanin
METRIC_NAME: inhibition at 20 µM (%)
The reply should contain only the number, in %.

COMPOUND: CCCCC/C=C\C/C=C\CCCCCCCC(=O)OC1=C(OC(=O)CCCCCCC/C=C\C/C=C\CCCCC)C(C2COC(C)(C)O2)OC1=O (stereo not drawn)
UNIT_ANNOTATION: %
inhibition at 20 µM: 21
--
COMPOUND: CC/C=C\C/C=C\C/C=C\CCCCCCCC(=O)OC1=C(OC(=O)CCCCCCC/C=C\C/C=C\C/C=C\CC)C(C2COC(C)(C)O2)OC1=O (stereo not drawn)
UNIT_ANNOTATION: %
inhibition at 20 µM: 53
--
COMPOUND: CCCCC/C=C\C/C=C\CCCCCCCC(=O)OC1=C(O)C(C2COC(C)(C)O2)OC1=O (stereo not drawn)
UNIT_ANNOTATION: %
inhibition at 20 µM: 13

In: Report inhibition at 20 µM for CCCCCCCC/C=C\CCCCCCCC(=O)OC1=C(OC(=O)CCCCCCC/C=C\CCCCCCCC)C(C2COC(C)(C)O2)OC1=O (stereo not drawn) please.
Out: 6

In: Report inhibition at 20 µM for CCCCC/C=C\C/C=C\C/C=C\CCCCC(=O)OC1=C(OC(=O)CCCC/C=C\C/C=C\C/C=C\CCCCC)C(C2COC(C)(C)O2)OC1=O (stereo not drawn) please.
Out: 50

In: Report inhibition at 20 µM for O=C1O[C@H]([C@@H](O)CO)C(O)=C1O please.
Out: 7
